Cited source: ChEMBL document CHEMBL1152572

- Test system: Plasmodium falciparum
- Measurement notes: Antiplasmodial activity against chloroquine-resistant Plasmodium falciparum Dd2 assessed as SYBR Green 1 fluorescence emission after 72 hrs
- Assay type: functional, organism-based
- Assay context: Dd2, 72 h
pIC50: −log10 of the molar value.
Rule: true (1) for pIC50 not less than 7, false (0) for anything less.

IN: Record CCN(CC)CCCC(=O)NCCNc1ccnc2cc(Cl)ccc12 ; criterion: pIC50 no lower than 7. Met?
OUT: false (0)

IN: Could you please find out whether CCN(CC)CCCCCC(=O)NCCNc1ccnc2cc(Cl)ccc12 has pIC50 that meets 7 or exceeds it?
OUT: false (0)

IN: Form field: pIC50 at least 7? Entry: CCN(CC)CCCCN(CC)CCNc1ccnc2cc(Cl)ccc12
OUT: true (1)

IN: Threshold query (pIC50 >= 7) on CCN(CC)CCN(CC)CCNc1ccnc2cc(Cl)ccc12
OUT: true (1)

IN: Hello, I need to know if CCN(CC)CCCCCN(CC)CCNc1ccnc2cc(Cl)ccc12 has measured pIC50 not below 7. Thanks!
OUT: true (1)

IN: Hi team, for CCN(CC)CCCCNCCNc1ccnc2cc(Cl)ccc12 , is the recorded pIC50 at or above 7?
OUT: false (0)

IN: Is the recorded value of pIC50 equal to or greater than 7 for this compound? CCN(CC)CCCNCCOc1ccnc2cc(Cl)ccc12
OUT: false (0)

IN: Decide: is the reported value of pIC50 for CCN(CC)CCNCCNc1ccnc2cc(Cl)ccc12 equal to or greater than 7?
OUT: false (0)

====

- Test system: Plasmodium falciparum
- Measurement notes: Antiplasmodial activity against chloroquine-sensitive Plasmodium falciparum HB3 assessed as SYBR Green 1 fluorescence emission after 72 hrs
- Assay type: functional, organism-based
- Assay context: HB3, 72 h
Hi! Could you tag entries with IC50 below 30 nM as Condition met, and those at or above as Condition not met? Much appreciated.

IN: Please indicate whether the reported IC50 of CCN(CC)CCCCCCNCCNc1ccnc2cc(Cl)ccc12 is strictly below 30 nM.
OUT: Condition not met

IN: Consider CCN(CC)CCCCCN(CC)CCNc1ccnc2cc(Cl)ccc12 . Does its IC50 lie strictly below 30 nM?
OUT: Condition met

IN: Hello, I'm reviewing records and need to know if IC50 of CCN(CC)CCCCN(CC)CCNc1ccnc2cc(Cl)ccc12 is below 30 nM. Could you check?
OUT: Condition met

IN: Quick check: IC50 of CCN(CC)CCCCCC(=O)NCCNc1ccnc2cc(Cl)ccc12 under 30 nM?
OUT: Condition not met

IN: Hi there! Is IC50 for CCN(CC)CCCCCNCCNc1ccnc2cc(Cl)ccc12 below 30 nM, do you know?
OUT: Condition met

IN: IC50 strictly < 30 nM for this compound? CCN(CC)CCCC(=O)NCCNc1ccnc2cc(Cl)ccc12
OUT: Condition not met

====

- System: Plasmodium falciparum
- Measurement notes: Antiplasmodial activity against chloroquine-resistant Plasmodium falciparum Dd2 assessed as SYBR Green 1 fluorescence emission after 72 hrs
- Format: functional, organism-based
- Assay context: Dd2, 72 h
Reported IC50 is given for each of the following compounds.
Your answer is read as nM, so omit the unit and give the number.

Below, each entry is followed by its recorded IC50 result.
>  <Compound structure string>
CCN(CC)CCN(CCNc1ccnc2cc(Cl)ccc12)CCN(CC)CC

>  <Study target>
Plasmodium falciparum

>  <Measure unit>
nM

>  <Recorded measurement>
151

$$$$
>  <Compound structure string>
CCN(CC)CCCCCNCCNc1ccnc2cc(Cl)ccc12

>  <Study target>
Plasmodium falciparum

>  <Measure unit>
nM

>  <Recorded measurement>
459

$$$$
>  <Compound structure string>
CCN(CC)CCCCCCNCCNc1ccnc2cc(Cl)ccc12

>  <Study target>
Plasmodium falciparum

>  <Measure unit>
nM

>  <Recorded measurement>
231

$$$$
>  <Compound structure string>
CCN(CC)CC(=O)NCCNc1ccnc2cc(Cl)ccc12

>  <Study target>
Plasmodium falciparum

>  <Measure unit>
nM

>  <Recorded measurement>
3360

$$$$
>  <Compound structure string>
CCN(CC)CCCN(CC)CCOc1ccnc2cc(Cl)ccc12

>  <Study target>
Plasmodium falciparum

>  <Measure unit>
nM

>  <Recorded measurement>
409

$$$$
>  <Compound structure string>
CCN(CC)CCCCC(=O)NCCNc1ccnc2cc(Cl)ccc12

>  <Study target>
Plasmodium falciparum

>  <Measure unit>
nM

>  <Recorded measurement>
1190

$$$$
>  <Compound structure string>
CCN(CC)CCCNCCCOc1ccnc2cc(Cl)ccc12

>  <Study target>
Plasmodium falciparum

>  <Measure unit>
nM

>  <Recorded measurement>
240

$$$$
>  <Compound structure string>
CCN(CC)CCC(=O)NCCOc1ccnc2cc(Cl)ccc12

>  <Study target>
Plasmodium falciparum

>  <Measure unit>
nM

>  <Recorded measurement>
1460

$$$$

IN: Query IC50 for CCN(CC)CCCCCCN(CC)CCNc1ccnc2cc(Cl)ccc12
OUT: 19.9

IN: Answer with reported IC50 of CCN(CC)CCCN(CC)CCCOc1ccnc2cc(Cl)ccc12
OUT: 108

IN: Respond only with IC50 recorded for CCN(CC)CCC(=O)NCCCOc1ccnc2cc(Cl)ccc12
OUT: 752
